FYI, the data here is from PubChem BioAssay (NCI).

- Test system: SF-268 CNS
- Protocol: NCI tumour cell line growth inhibition, 48 h; in the data active means GI50 below about 0.43 µM; inactive means the rest
Could you please pick one outcome from this set? yes (1) for active, no (0) for inactive

Examples with answers:
Entry Smiles: ClCc1ccccc1Cn1cnc2c(Cl)nc(Cl)nc21
Class Assignment: yes (1)

Entry Smiles: S=C(S)NCCNC(=S)S.[Cu+2]
Class Assignment: no (0)

Entry Smiles: COc1ccc2cc(C#Cc3ccc(-n4c(/C=C/c5cc(OC)c(OC)c(OC)c5)nc5ccccc5c4=O)c(C)c3)ccc2c1
Class Assignment: no (0)

Entry Smiles: CCCC[C@H](NC(=O)[C@H]1CCCCN1C)C(=O)N(C)[C@H](C[C@@H](OC(C)=O)c1nc(C(=O)N[C@@H](Cc2ccccc2)C[C@H](C)C(=O)OCC)cs1)C(C)C
Class Assignment: yes (1)

Entry Smiles: O=C(c1ccc(Cl)c(Cl)c1)N1CCN(C(=O)c2ccc(Cl)c(Cl)c2)C1=S
Class Assignment: no (0)

Entry Smiles: Cc1ccc(S(=O)(=O)c2ccccc2)cc1
Class Assignment: no (0)

Entry Smiles: CCOc1cc(F)c([N+](=O)[O-])cc1[N+](=O)[O-]
Class Assignment: no (0)

Entry Smiles: COc1cccc2[nH]c3c4c(c5c(c3c12)C(=O)N(CN1CCN(C)CC1)C5=O)CCC4
Class Assignment: no (0)

Then this compound:
Exercise: Recorded test outcome, item C[CH2][Sn]([CH2]C)([O]C(=O)c1ccccc1F)[O]C(=O)c1ccccc1F
Key: no (0)
